- Tested on: DIPGX29 (H3.3 K27M diffuse intrinsic pontine glioma line)
- assay-comment: growth inhibition (% activity, log2 RLU normalised to DMSO / staurosporine); higher = more growth inhibition
- protocol-conditions: 33 µM
measurement-kind: growth inhibition (%)
Answers are plain numbers, in %.

O=C(O)c1cc(-c2ccccc2)nc2ccccc12    0.382
N[C@@H]1CN(c2c(F)cc3c(=O)c(C(=O)O)cn([C@@H]4C[C@@H]4F)c3c2Cl)CC12CC2    1.84
O=S(=O)(O)NC1CCCCC1    0.811
COc1cccc(N(C)C(=S)Oc2ccc3c(c2)CCCC3)n1    2.16
Nc1ccc(S(N)(=O)=O)cc1    -0.377

# batch size: 5; output growth inhibition per entry
1. CN1CC(=O)N2[C@H](c3ccc4c(c3)OCO4)c3[nH]c4ccccc4c3C[C@@H]2C1=O
2. O=C(Nc1ccc([N+](=O)[O-])cc1Cl)c1cc(Cl)ccc1O
3. CC(C)(O)c1ccccc1CC[C@@H](SCC1(CC(=O)O)CC1)c1cccc(/C=C/c2ccc3ccc(Cl)cc3n2)c1
4. Clc1ccc(C(Cn2ccnc2)OCc2csc3c(Cl)cccc23)c(Cl)c1 (centres undefined)
5. NCCS

Reply:
1. -0.154
2. 43.9
3. -0.862
4. 2.06
5. -2.8

====

Exercise: state measured growth inhibition for each of the compounds provided.
- Tested on: DIPGX37 (H3.3 K27M diffuse intrinsic pontine glioma line)
- assay-comment: growth inhibition (% activity, log2 RLU normalised to DMSO / staurosporine); higher = more growth inhibition
- protocol-conditions: 33 µM
One number for each entry, in %.

# batch size: 5; output growth inhibition per entry
1. Cc1ccc(C(=O)c2ccc(CC(=O)O)n2C)cc1
2. C[C@@H](O[C@H]1OCCN(Cc2nn(P(=O)(O)O)c(=O)[nH]2)[C@H]1c1ccc(F)cc1)c1cc(C(F)(F)F)cc(C(F)(F)F)c1
3. CN(C)CCc1c[nH]c2ccc(Cn3cncn3)cc12
4. C[C@]12C=CC(=O)C=C1CC[C@@H]1[C@@H]2[C@@H](O)C[C@@]2(C)[C@H]1CC[C@]2(O)C(=O)CO
5. C#Cc1cccc(Nc2ncnc3cc(OCCOC)c(OCCOC)cc23)c1

Reply:
-0.055
2.67
0.65
0.082
0.211

# batch size: 3; output growth inhibition per entry
1. CC(C)(C)NC(=O)[C@H]1CC[C@H]2[C@@H]3CC[C@H]4NC(=O)C=C[C@]4(C)[C@H]3CC[C@]12C
2. CN(C)CCC=C1c2ccccc2CCc2ccccc21
3. OCC(CO)N[C@H]1C[C@](O)(CO)[C@@H](O)[C@H](O)[C@H]1O

Reply:
1.06
2.57
0.847

====

- Tested on: HNSC
- assay-comment: growth inhibition (% activity, log2 RLU normalised to DMSO / staurosporine); higher = more growth inhibition
- protocol-conditions: 33 µM
measurement-kind: growth inhibition (%)
Numbers only, in %.

CCC(=O)O[C@@H](O[P@](=O)(CCCCc1ccccc1)CC(=O)N1C[C@H](C2CCCCC2)C[C@H]1C(=O)O)C(C)C    2.72
Cc1cccc(Nc2ccccc2C(=O)O)c1C    9.87
CCC[C@H](NC(=O)[C@@H]1[C@H]2CCC[C@H]2CN1C(=O)[C@@H](NC(=O)[C@@H](NC(=O)c1cnccn1)C1CCCCC1)C(C)(C)C)C(=O)C(=O)NC1CC1    3.02

# batch size: 2; output growth inhibition per entry
1. COc1cc2nc(N3CCN(C(=O)c4ccco4)CC3)nc(N)c2cc1OC
2. CC(C)NCC(O)COc1cccc2ccccc12 (stereo not given)

Reply:
1. -0.602
2. -3.29

From: the supplement of paper PMC8253809
